Reference for the values: ChEMBL document CHEMBL1135974

# Tgt: D(2) dopamine receptor (Homo sapiens, UniProt P14416)
# Sequence (P14416 whole entry): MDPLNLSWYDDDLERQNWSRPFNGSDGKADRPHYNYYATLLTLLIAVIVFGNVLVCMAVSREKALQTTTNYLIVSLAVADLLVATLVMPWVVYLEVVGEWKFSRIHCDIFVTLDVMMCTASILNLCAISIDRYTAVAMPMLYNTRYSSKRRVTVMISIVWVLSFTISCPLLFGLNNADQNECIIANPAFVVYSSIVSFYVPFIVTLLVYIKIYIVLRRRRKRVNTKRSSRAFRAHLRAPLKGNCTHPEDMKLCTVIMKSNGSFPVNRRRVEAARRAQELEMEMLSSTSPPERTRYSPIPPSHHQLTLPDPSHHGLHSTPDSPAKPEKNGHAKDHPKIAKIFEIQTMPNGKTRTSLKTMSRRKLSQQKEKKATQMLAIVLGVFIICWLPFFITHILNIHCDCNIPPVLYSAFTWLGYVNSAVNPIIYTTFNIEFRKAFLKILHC
pKi: −log10 of the molar value.
Value kind: pKi

O=C(NCCCCN1CCN(c2cccc(Cl)c2Cl)CC1)c1cc2ccccc2[te]1: 7.04
